Tested on: Micrococcus luteus
test.name: Antimicrobial activity against Micrococcus luteus assessed as reduction in bacterial growth after 20 hrs by […]
Format: functional
Non-standard residues stand in square brackets, D forms with d. Residues, ends and D or L forms follow the SMILES beside them.
recorded.metric: MIC

Lookup: Could you share which MIC value was measured for CC[C@@H](C)[C@@H](NC(=O)CN)C(=O)N[C@H](CC(C)C)C(=O)N[C@H](CO)C(=O)N[C@H](CO)C(=O)N[C@H](CC(C)C)C(=O)N[C@H](CC(C)C)C(=O)N[C@H](CCCCN)C(=O)N[C@H](CCCCN)C(=O)N[C@H](CC(C)C)C(=O)N[C@H](CCCCN)C(=O)N[C@H](CCCCN)C(=O)N[C@@H](C(=O)N[C@@H](C(=O)N[C@H](C)C(=O)N[C@H](CCCCN)C(N)=O)[C@H](C)CC)[C@H](C)CC (H-G[dI][dL][dS][dS][dL][dL][dK][dK][dL][dK][dK][dI][dI][dA][dK]-NH2) ?
Found: ≤ 3 µM

# credit: ChEMBL document CHEMBL4477183
